target: Toxin B (Clostridioides difficile); test: TcdB glycohydrolase inhibitors, primary screen, biochemical, single point, plate reader (AID 652162); details: TcdB glycohydrolase enzymatic assay, at 9.99 µM, hits give high values
Screen size: about 350,000 compounds; about 840 (0.24%) were called active. Shown is part of a subset that was picked to be rich in actives.
Would you mind telling me the reported inhibition of each entry?
Numbers only, in %.

| Compound | inhibition (%) |
| --- | --- |
| CN1C(=O)c2cc(NC(=O)c3ccccc3)ccc2OC[C@@H]2O[C@H](CC(=O)NCC3CC3)CC[C@@H]21 | 0.093 |

Would you be so kind as to report inhibition for each listed record?
1. CC(C)NC(=O)Nc1ccc2c(c1)C(=O)N([C@@H](C)CO)C[C@H](C)[C@@H](CN(C)C)O2
2. COc1ccc(NC(=O)N[C@H]2CC[C@@H](CCNC(=O)c3cc(Cl)cc(Cl)c3)O[C@H]2CO)cc1

*A*
0.811
-0.154

*Q* Find the recorded inhibition belonging to "Cc1ccc(-c2cnc3c(c2)C(=O)N([C@H](C)CO)C[C@@H](C)[C@H](CN(C)Cc2ccccc2C(=O)O)O3)cc1" and report it.
*A* 0.061

---

biological target: Toxin B (Clostridioides difficile) (UniProt P18177); assay: TcdB glycohydrolase inhibitors, primary screen, biochemical, single point, plate reader (AID 652162); details: TcdB glycohydrolase enzymatic assay, at 9.99 µM
Sequence (P18177 whole entry, looked up): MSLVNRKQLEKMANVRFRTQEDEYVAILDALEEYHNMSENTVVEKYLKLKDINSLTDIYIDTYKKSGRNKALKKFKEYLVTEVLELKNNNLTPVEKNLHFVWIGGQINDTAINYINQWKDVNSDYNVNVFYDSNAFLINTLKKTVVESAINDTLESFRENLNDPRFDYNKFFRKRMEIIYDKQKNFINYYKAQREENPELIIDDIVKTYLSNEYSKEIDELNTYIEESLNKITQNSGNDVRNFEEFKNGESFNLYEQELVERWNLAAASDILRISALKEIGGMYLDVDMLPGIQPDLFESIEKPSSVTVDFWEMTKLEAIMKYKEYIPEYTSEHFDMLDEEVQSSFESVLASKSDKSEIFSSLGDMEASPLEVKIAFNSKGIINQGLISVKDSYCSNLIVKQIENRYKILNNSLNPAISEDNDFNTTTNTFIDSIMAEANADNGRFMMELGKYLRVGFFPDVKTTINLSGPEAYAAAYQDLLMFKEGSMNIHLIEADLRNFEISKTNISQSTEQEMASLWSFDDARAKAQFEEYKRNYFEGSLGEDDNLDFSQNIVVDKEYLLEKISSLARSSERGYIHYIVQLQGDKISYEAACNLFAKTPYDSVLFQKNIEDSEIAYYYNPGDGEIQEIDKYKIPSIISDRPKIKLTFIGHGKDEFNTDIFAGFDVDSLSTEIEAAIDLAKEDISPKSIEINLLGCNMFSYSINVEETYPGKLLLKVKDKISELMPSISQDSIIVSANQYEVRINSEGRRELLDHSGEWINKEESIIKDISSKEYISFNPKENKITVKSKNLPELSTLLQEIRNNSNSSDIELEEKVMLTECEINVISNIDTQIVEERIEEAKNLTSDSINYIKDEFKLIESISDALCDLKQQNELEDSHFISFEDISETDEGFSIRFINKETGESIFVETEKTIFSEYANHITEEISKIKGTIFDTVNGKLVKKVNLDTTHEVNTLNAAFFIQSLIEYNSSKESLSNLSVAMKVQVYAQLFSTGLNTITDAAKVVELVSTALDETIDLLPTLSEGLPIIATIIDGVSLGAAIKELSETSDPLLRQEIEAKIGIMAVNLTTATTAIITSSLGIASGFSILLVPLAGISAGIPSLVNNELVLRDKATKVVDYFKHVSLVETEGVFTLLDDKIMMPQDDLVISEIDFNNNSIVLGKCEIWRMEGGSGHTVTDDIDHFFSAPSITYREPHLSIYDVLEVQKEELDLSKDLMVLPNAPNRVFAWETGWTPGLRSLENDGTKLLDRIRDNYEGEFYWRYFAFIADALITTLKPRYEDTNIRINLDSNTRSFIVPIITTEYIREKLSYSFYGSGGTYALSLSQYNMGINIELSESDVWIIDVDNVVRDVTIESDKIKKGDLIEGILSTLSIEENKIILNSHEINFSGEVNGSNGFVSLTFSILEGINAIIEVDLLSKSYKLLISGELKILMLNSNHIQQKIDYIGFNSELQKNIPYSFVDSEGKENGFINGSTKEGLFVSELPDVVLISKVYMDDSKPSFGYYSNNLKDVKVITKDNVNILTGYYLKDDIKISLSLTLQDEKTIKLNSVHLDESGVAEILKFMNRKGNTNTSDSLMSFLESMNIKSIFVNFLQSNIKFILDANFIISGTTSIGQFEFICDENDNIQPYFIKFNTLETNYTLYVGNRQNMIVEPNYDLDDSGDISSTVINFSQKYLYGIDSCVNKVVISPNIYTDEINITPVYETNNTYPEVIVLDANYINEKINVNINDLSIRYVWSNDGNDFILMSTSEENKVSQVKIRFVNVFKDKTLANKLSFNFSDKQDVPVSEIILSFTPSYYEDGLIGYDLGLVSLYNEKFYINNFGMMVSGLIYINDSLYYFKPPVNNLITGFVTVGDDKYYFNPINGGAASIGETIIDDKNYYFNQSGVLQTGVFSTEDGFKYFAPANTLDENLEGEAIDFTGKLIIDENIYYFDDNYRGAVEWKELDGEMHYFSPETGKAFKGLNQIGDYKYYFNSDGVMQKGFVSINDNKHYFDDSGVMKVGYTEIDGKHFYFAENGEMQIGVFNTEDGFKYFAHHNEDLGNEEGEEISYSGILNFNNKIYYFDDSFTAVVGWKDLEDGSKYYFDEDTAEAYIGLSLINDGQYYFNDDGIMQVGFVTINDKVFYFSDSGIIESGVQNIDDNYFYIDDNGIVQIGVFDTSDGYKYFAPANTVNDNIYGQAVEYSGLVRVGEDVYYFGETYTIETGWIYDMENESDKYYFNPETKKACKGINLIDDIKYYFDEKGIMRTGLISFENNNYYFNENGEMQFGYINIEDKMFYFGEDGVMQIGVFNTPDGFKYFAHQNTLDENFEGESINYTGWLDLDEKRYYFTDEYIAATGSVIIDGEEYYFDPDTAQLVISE
Out of some 350,000 compounds screened, about 840 (0.24%) were called active. No stated cut-off is given here; in the data, active means inhibition above about 10%; inactive means the rest. Only a selection was taken, and actives are over-represented in it overall.
Your answer must be one of the following: active, inactive

Worked cases, answers included:
| Compound | Label |
| --- | --- |
| COC1=C/C(=C/c2c(N)n3nc(CC(=O)N4CCOCC4)sc3nc2=O)C=CC1=O | active |
| O=C(Nc1cnccn1)c1cccnc1 | inactive |
| CCCC#Cc1ccc([C@@H]2[C@@H](CO)N3C(=O)CN(C(=O)Nc4cccc(F)c4)C[C@H]23)cc1 | inactive |
| C[C@H]1CN([C@@H](C)CO)C(=O)c2cc(NS(=O)(=O)c3ccc(F)cc3)ccc2O[C@H]1CN(C)CC1CC1 | inactive |
| Cc1ccc(-c2ccc(=O)n(Cc3ccc(F)cc3Cl)n2)cc1 | inactive |

*Q* Recorded test call requested for "O=C(NN=C1CCC(=NNC(=O)c2cccnc2)CC1)c1cccnc1"
*A* active

*Q* Recorded test call requested for "O=C(NC[C@H]1[C@@H](c2ccccc2)[C@H](CO)N1CC1CC1)c1cccnc1"
*A* inactive

*Q* Recorded test call requested for "C=CCC1=C/C(=C\c2c(N)n3nc(CC(=O)N4CCOCC4)sc3nc2=O)C=C(OC)C1=O"
*A* inactive

*Q* Recorded test call requested for "C[C@H](CO)N1C[C@H](C)[C@H](CN(C)Cc2ccc3c(c2)OCO3)Oc2c(NC(=O)NC3CCCCC3)cccc2C1=O"
*A* inactive

---

target: Toxin B (Clostridioides difficile); test: TcdB glycohydrolase inhibitors, primary screen, biochemical, single point, plate reader (AID 652162); conditions: TcdB glycohydrolase enzymatic assay, at 9.99 µM
The campaign covered roughly 350,000 compounds. About 840 (0.24%) were called active. No stated cut-off is given here; in the data, active means inhibition above about 10%; inactive means the rest. The list comes from a sample in which actives are over-represented; it also holds close analogues and randomly drawn compounds.
Your answer must be one of the following: t = active, f = inactive

*Q* Recorded test call requested for "O=C(N[C@H]1C=C[C@@H](CC(=O)N2CCc3ccccc3C2)O[C@@H]1CO)C1CCOCC1"
*A* f

*Q* Recorded test call requested for "N#C[C@H]1[C@@H](c2ccccc2C2=CCCCC2)[C@H](CO)N1C(=O)c1ccccn1"
*A* f

*Q* Recorded test call requested for "S=C(NCc1ccco1)Nc1ccc2c(c1)OCCO2"
*A* f

*Q* Recorded test call requested for "C[C@@H]1CCCCO[C@@H](CN(C)C(=O)NC2CCCCC2)[C@H](C)CN([C@H](C)CO)C(=O)c2cc(NC(=O)Nc3cccc4ccccc34)ccc2O1"
*A* f

*Q* Recorded test call requested for "C[C@H]1CN([C@@H](C)CO)C(=O)Cc2cc(N(C)C)ccc2O[C@@H]1CN(C)S(=O)(=O)c1ccc(F)cc1"
*A* f

*Q* Recorded test call requested for "COc1ccc(C(=O)OCC(=O)Nc2ccc3[nH]c(=O)[nH]c3c2)c(OC)c1OC"
*A* t

*Q* Recorded test call requested for "O=C(COC(=O)c1cccc(Cl)c1)Nc1ccc2[nH]c(=O)[nH]c2c1"
*A* f

---

molecular target: Toxin B (Clostridioides difficile) (UniProt P18177); assay: TcdB glycohydrolase inhibitors, primary screen, biochemical, single point, plate reader (AID 652162); conditions: TcdB glycohydrolase enzymatic assay, at 9.99 µM, hits give high values
Among all 350,000 compounds or so, about 840 (0.24%) were called active. The list comes from a sample in which actives are over-represented; it also holds close analogues and randomly drawn compounds.
Assay Endpoint: inhibition

Below are worked cases with known answers.
| Compound | Target Desc | Value Measured |
| --- | --- | --- |
| Nc1ccccc1-c1nc2ccncc2[nH]1 | Toxin B (Clostridioides difficile) (UniProt P18177) | 12.2% (active) |
| O=C(C[C@H]1CC[C@H]2[C@@H](COC[C@H](O)CN2C(=O)c2ccccc2F)O1)NCc1ccccc1 | Toxin B (Clostridioides difficile) (UniProt P18177) | 0.135% (inactive) |
| C[C@@H]1CCCCO[C@@H](CN(C)C(=O)NC2CCCCC2)[C@@H](C)CN([C@H](C)CO)C(=O)c2cc(NC(=O)CCCCCC(=O)Nc3ccccc3N)ccc2O1 | Toxin B (Clostridioides difficile) (UniProt P18177) | 0.319% (inactive) |

*Q* Find the recorded inhibition belonging to "CCOC(=O)CNC(=O)CSc1ncccc1-c1nc2ccccc2[nH]1" and report it.
*A* -7.68% (inactive)

---

Would you mind telling me the reported inhibition of each entry?
target: Toxin B (Clostridioides difficile); assay: TcdB glycohydrolase inhibitors, primary screen, biochemical, single point, plate reader (AID 652162); details: TcdB glycohydrolase enzymatic assay, at 9.99 µM, hits give high values
About 840 (0.24%) of roughly 350,000 compounds were called active. Only a selection was taken, and actives are over-represented in it overall.
One number for each entry, in %.

Below are worked cases with known answers.
| Compound | Assay Endpoint | Value Measured |
| --- | --- | --- |
| CCS(=O)(=O)N1CCC2(CC1)CN(S(=O)(=O)c1ccc(C)cc1)[C@H](CO)c1[nH]c3cc(OC)ccc3c12 | inhibition | -1.12 |
| Cc1ccc(NNC(=O)C2CCC2)cc1C | inhibition | 58.9 |
| COc1ccc(S(=O)(=O)Nc2ccc3c(c2)C(=O)N([C@@H](C)CO)C[C@@H](C)[C@H](CN(C)S(=O)(=O)c2cccs2)O3)cc1 | inhibition | 0.284 |

*Q* Identify the measured inhibition of "CCCC#Cc1ccc([C@H]2[C@@H](CO)N3C(=O)CN(C(=O)c4ccncc4)C[C@H]23)cc1" for Toxin B (Clostridioides difficile).
*A* 0.225

---

molecular target: Toxin B (Clostridioides difficile) (UniProt P18177); test: TcdB glycohydrolase inhibitors, primary screen, biochemical, single point, plate reader (AID 652162); conditions: TcdB glycohydrolase enzymatic assay, at 9.99 µM, hits give high values
Out of some 350,000 compounds screened, about 840 (0.24%) were called active. Only a selection was taken, and actives are over-represented in it overall.
Assay Endpoint: inhibition (%)
Answers are plain numbers, in %.

| Compound | Target Desc | Assay Endpoint | Result Unit | Value Measured |
| --- | --- | --- | --- | --- |
| CNC[C@H]1Oc2cc(C#CC(C)(C)O)ccc2S(=O)(=O)N([C@@H](C)CO)C[C@@H]1C | Toxin B (Clostridioides difficile) (UniProt P18177) | inhibition | % | -0.494 |
| C[C@H](CO)N1C[C@H](C)[C@H](CN(C)S(=O)(=O)c2cccc(F)c2)Oc2ncc(/C=C/c3ccccc3)cc2C1=O | Toxin B (Clostridioides difficile) (UniProt P18177) | inhibition | % | 0.994 |
| Cc1noc(C)c1NC(=O)N[C@@H]1CC[C@H](CC(=O)Nc2ccccc2)O[C@H]1CO | Toxin B (Clostridioides difficile) (UniProt P18177) | inhibition | % | 2.14 |
| COc1ccc(NC(=O)Nc2ccc3c(c2)C(=O)N([C@H](C)CO)C[C@H](C)[C@H](CN(C)C(=O)Nc2c(C)noc2C)OCCCC[C@@H](C)O3)cc1 | Toxin B (Clostridioides difficile) (UniProt P18177) | inhibition | % | 0.188 |

Would you be so kind as to report inhibition for each listed record?
1. COc1cccc(-n2c(=S)sc3c(=O)n(-c4ccccc4OC)c(SCC4OCCO4)nc32)c1
2. CC(C)NC(=O)Nc1ccc2c(c1)C(=O)N([C@H](C)CO)C[C@H](C)[C@@H](CN(C)C)OCCCC[C@H](C)O2

*A*
1.51
0.315
